molecular target: human FOLR1 on cells (Hela, RPTEC/TERT1, OVCAR3, OV90, IGROV-1, JEG-3, KB, NCI-H441) (human, UniProt P15328 25-234); experiment: cell-based or functional assay
Sequence (P15328 25-234): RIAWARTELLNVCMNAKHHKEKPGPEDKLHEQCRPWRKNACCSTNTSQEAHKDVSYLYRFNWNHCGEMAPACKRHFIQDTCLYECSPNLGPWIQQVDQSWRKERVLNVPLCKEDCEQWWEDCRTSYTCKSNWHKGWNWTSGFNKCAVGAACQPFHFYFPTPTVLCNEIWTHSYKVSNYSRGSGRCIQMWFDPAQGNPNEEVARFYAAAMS
As shown below, each of these binders has a reported Internalization ratio (%), OVCAR3, 24 h value.
attribute_measured: Internalization ratio (%), OVCAR3, 24 h

binder	meas_value
F26-ADC (antibody F26 conjugated to mc-VC-PAB-MMAE) (antibody, V domains shown, mc-VC-PAB-MMAE on cysteine thiols after TCEP reduction (positions not stated; DAR within 3~4), Antibody-drug conjugate; also called F26 immunoconjugate) VH: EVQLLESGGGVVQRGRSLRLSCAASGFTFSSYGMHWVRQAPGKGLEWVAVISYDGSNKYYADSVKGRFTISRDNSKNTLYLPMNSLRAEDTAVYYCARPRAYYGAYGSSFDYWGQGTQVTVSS VL: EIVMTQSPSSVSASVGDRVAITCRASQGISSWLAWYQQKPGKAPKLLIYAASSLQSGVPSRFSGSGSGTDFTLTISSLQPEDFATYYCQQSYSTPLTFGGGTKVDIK	48.1
FR107-ADC (reference antibody mirvetuximab huFR107 conjugated to mc-VC-PAB-MMAE) (antibody, V domains shown, mc-VC-PAB-MMAE on cysteine thiols after TCEP reduction (positions not stated; DAR within 3~4), Control conjugate) VH: QVQLVQSGAEVVKPGASVKISCKASGYTFTGYFMNWVKQSPGQSLEWIGRIHPYDGDTFYNQKFQGKATLTVDKSSNTAHMELLSLTSEDFAVYYCTRYDGSRAMDYWGQGTTVTVSS VL: DIVLTQSPLSLAVSLGQPAIISCKASQSVSFAGTSLMHWYHQKPGQQPRLLIYRASNLEAGVPDRFSGSGSKTDFTLTISPVEAEDAATYYCQQSREYPYTFGGGTKLEIK	44.8
F131-ADC (antibody F131 conjugated to mc-VC-PAB-MMAE) (antibody, V domains shown, mc-VC-PAB-MMAE on cysteine thiols after TCEP reduction (positions not stated; DAR within 3~4), Antibody-drug conjugate; also called F131 immunoconjugate) VH: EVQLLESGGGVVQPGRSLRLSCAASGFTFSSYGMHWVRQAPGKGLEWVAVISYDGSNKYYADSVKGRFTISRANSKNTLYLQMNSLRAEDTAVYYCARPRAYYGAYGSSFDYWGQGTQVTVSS VL: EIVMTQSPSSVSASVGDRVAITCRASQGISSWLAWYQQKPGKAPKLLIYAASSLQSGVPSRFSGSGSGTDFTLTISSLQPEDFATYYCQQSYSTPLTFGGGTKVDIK	47.7
F8-ADC (antibody F8 conjugated to mc-VC-PAB-MMAE) (antibody, V domains shown, mc-VC-PAB-MMAE on cysteine thiols after TCEP reduction (positions not stated; DAR within 3~4), Antibody-drug conjugate; also called F8 immunoconjugate) VH: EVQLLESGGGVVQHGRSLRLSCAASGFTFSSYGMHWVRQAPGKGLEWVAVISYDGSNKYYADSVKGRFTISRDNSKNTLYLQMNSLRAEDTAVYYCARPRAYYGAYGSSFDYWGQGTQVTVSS VL: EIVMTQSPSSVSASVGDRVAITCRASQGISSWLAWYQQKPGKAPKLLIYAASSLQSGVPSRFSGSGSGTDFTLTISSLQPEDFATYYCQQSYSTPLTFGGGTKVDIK	47.6
